Target: GTPase KRas/RAF1 (Homo sapiens)
Assay: Inhibition of biotinylated wild type KRAS (1 to 169 residues) (unknown origin)/CRAF RBD (unknown origin) protein-protein interaction preincubated for 60 mins followed by SOS1 and GTPgs addition measured after 60 mins by FRET assay
Could you please mark TRUE for values of IC50 below 30 nM and FALSE for values at or above it?

C[C@H](NC(=O)[C@H]1C[C@@H](O)CN1C(=O)[C@@H](NC(=O)CCOCCCN1CCC[C@H]1COc1nc(N2CC3CCC(C2)N3)c2cc(C(F)(F)F)c(-c3ccc(F)c4sc(N)c(C#N)c34)c(F)c2n1)C(C)(C)C)c1ccc(-c2c(F)cccc2F)cc1 ... TRUE
Cc1ncsc1-c1ccc([C@H](C)NC(=O)[C@H]2C[C@@H](O)CN2C(=O)[C@@H](NC(=O)CCOCCCN2CCC[C@H]2COc2nc(N3CC4CCC(C3)N4)c3cnc(-c4cc(O)cc5cccc(F)c45)c(F)c3n2)C(C)(C)C)cc1 ... FALSE
C[C@H](NC(=O)[C@H]1C[C@@H](O)CN1C(=O)[C@@H](NC(=O)CCOCCCN1CCC[C@H]1COc1nc(N2CC3CCC(C2)N3)c2cc(Cl)c(-c3ccc(F)c4sc(N)c(C#N)c34)c(F)c2n1)C(C)(C)C)c1ccc(-c2c(F)cccc2F)cc1 ... FALSE
Cc1ncsc1-c1ccc([C@H](C)NC(=O)[C@H]2C[C@@H](O)CN2C(=O)[C@@H](NC(=O)CCOCCCN2CCC[C@H]2COc2nc(N3CC4CCC(C3)N4)c3cc(Cl)c(-c4ccc(F)c5sc(N)c(C#N)c45)c(F)c3n2)C(C)(C)C)cc1 ... TRUE
C#Cc1c(F)ccc2cc(O)cc(-c3ncc4c(N5CC6CCC(C5)N6)nc(OC[C@@H]5CCCN5CCCOCCC(=O)N[C@H](C(=O)N5C[C@H](O)C[C@@H]5C(=O)N[C@@H](C)c5ccc(-c6c(F)cccc6F)cc5)C(C)(C)C)nc4c3F)c12 ... FALSE

API: the following record is the query input.
Input C#Cc1c(F)ccc2cc(O)cc(-c3ncc4c(N5CC6CCC(C5)N6)nc(OC[C@@H]5CCCN5CCCOCCC(=O)N[C@H](C(=O)N5C[C@H](O)C[C@@H]5C(=O)N[C@@H](C)c5ccc(-c6ccncc6C#N)cc5)C(C)(C)C)nc4c3F)c12 ; condition: IC50 strictly below 30 nM. Does it hold? TRUE

###

Assay: Inhibition of biotinylated KRAS G12D mutant (unknown origin)/CRAF RBD (unknown origin) protein-protein interaction preincubated for 60 mins followed by SOS1 and GTPgs addition measured after 60 mins by FRET assay
Design: species or system Homo sapiens
Quick reference for pIC50 among some compounds
Lab note: report pIC50 as minus log10 of the concentration in molar units, number only.

Field: example entries. Status: answers known.
C[C@H](NC(=O)[C@H]1C[C@@H](O)CN1C(=O)[C@@H](NC(=O)CCOCCCN1CCC[C@H]1COc1nc(N2CC3CCC(C2)N3)c2cc(C(F)(F)F)c(-c3ccc(F)c4sc(N)c(C#N)c34)c(F)c2n1)C(C)(C)C)c1ccc(-c2c(F)cccc2F)cc1 ... 8.07
C#Cc1c(F)ccc2cc(O)cc(-c3ncc4c(N5CC6CCC(C5)N6)nc(OC[C@@H]5CCCN5CCCOCCC(=O)N[C@H](C(=O)N5C[C@H](O)C[C@@H]5C(=O)N[C@@H](C)c5ccc(-c6c(F)cccc6F)cc5)C(C)(C)C)nc4c3F)c12 ... 8.03
Cc1ncsc1-c1ccc([C@H](C)NC(=O)[C@H]2C[C@@H](O)CN2C(=O)[C@@H](NC(=O)CCOCCCN2CCC[C@H]2COc2nc(N3CC4CCC(C3)N4)c3cc(Cl)c(-c4ccc(F)c5sc(N)c(C#N)c45)c(F)c3n2)C(C)(C)C)cc1 ... 8.09
C#Cc1c(F)ccc2cc(O)cc(-c3ncc4c(N5CC6CCC(C5)N6)nc(OC[C@@H]5CCCN5CCCOCCC(=O)N[C@H](C(=O)N5C[C@H](O)C[C@@H]5C(=O)N[C@@H](C)c5ccc(-c6ccncc6C#N)cc5)C(C)(C)C)nc4c3F)c12 ... 8.10
Cc1ncsc1-c1ccc([C@H](C)NC(=O)[C@H]2C[C@@H](O)CN2C(=O)[C@@H](NC(=O)CCOCCCN2CCC[C@H]2COc2nc(N3CC4CCC(C3)N4)c3cnc(-c4cc(O)cc5cccc(F)c45)c(F)c3n2)C(C)(C)C)cc1 ... 8.09

Moving on to another compound below.
Suppose we examine the compound C[C@H](NC(=O)[C@H]1C[C@@H](O)CN1C(=O)[C@@H](NC(=O)CCOCCCN1CCC[C@H]1COc1nc(N2CC3CCC(C2)N3)c2cc(Cl)c(-c3ccc(F)c4sc(N)c(C#N)c34)c(F)c2n1)C(C)(C)C)c1ccc(-c2c(F)cccc2F)cc1 ; what pIC50 value has been reported? 8.12
